# Tested on: LOX IMVI melanoma
# Assay text: NCI tumour cell line growth inhibition, 48 h; in the data active = GI50 below about 0.43 µM; inactive = the rest
Outcomes: TRUE for active, FALSE for inactive

Compound: COc1cc2c(cc1OCCCCOc1cc3c(cc1OC)C(=O)N1CCC[C@H]1CN3)N=C[C@@H]1CCCN1C2=O
Label value: FALSE

Compound: COC1CC(OS(=O)(=O)c2ccc(C)cc2)C(OC(=O)c2ccccc2)C(C)O1 (stereo not given)
Label value: FALSE

Compound: CN(C)c1ccc(/C=C\c2cccc[n+]2C)cc1
Label value: FALSE

Compound: O=C(c1ccccc1)C(CN1CCOCC1)c1ccccc1 (stereo not given)
Label value: FALSE

Compound: O=C(/C(=C/c1ccccc1)CN1CCCCC1)c1ccccc1
Label value: TRUE

Compound: O=c1[nH]c2ccccc2nc1-c1c[nH]c2ccccc12
Label value: FALSE

Compound: C[C@@H]1CC[C@H]2C(COCCOCC3=C(C(F)(F)F)O[C@@H]4O[C@@]5(C)CC[C@H]6[C@H](C)CC[C@@H]3[C@@]46OO5)=C(C(F)(F)F)O[C@@H]3O[C@@]4(C)CC[C@@H]1[C@]32OO4
Label value: TRUE

Compound: C=CC(=O)N(C)[C@H]1C[C@H]2OC(C)(C1OC)n1c3ccccc3c3c4c(c5c6ccccc6n2c5c31)C(=O)NC4 (stereo not given in full)
Label value: TRUE

Compound: O=C1c2c(c3c4ccccc4[nH]c3c3ccc4ccccc4c23)C(=O)N1CCN1CCCCC1
Label value: FALSE

Compound: N#C/C(=C\c1c(-c2ccccc2)[nH]c2ccccc12)S(=O)(=O)c1ccccc1
Label value: FALSE

Compound: N/C(=N\N=C\c1ccc(-c2ccccc2)cc1)N[N+](=O)[O-]
Label value: FALSE

Compound: Cc1c2cc[n+](CCN3CCCCC3)cc2c(C)c2c1[nH]c1ccc(O)cc12
Label value: FALSE

Compound: CC(C)(C)c1ccc(OCCCCCCN2CCNCC2)cc1
Label value: FALSE

Compound: CC(CN1CCN(CCOCCO)CC1)CN1c2ccccc2Sc2ccc(Cl)cc21 (stereo not given)
Label value: FALSE

Compound: CN(C)c1ccc2c(c1)Sc1cc(N(C)C)ccc1N2C(=O)c1ccccc1
Label value: FALSE

Compound: C=CC(=O)Nc1cccc(C)c1Nc1cc(-c2cccnc2Cc2c(C)c(OC)cc(OC)c2C)ncn1
Label value: FALSE

Compound: O[C@H]1CO[C@H]2[C@@H]1OC[C@@H]2Oc1ccc(Nc2ccnc(Nc3ccc(O[C@H]4CO[C@H]5[C@@H]4OC[C@@H]5O)c(Cl)c3)n2)cc1Cl
Label value: FALSE

Compound: C[C@]12CC[C@H]3[C@@H](CCC4=CC(=O)CC[C@@H]43)[C@@H]1CC[C@@H]2OC(=O)CCc1ccccc1
Label value: FALSE

Compound: COc1cc2nc(N3CCCC3)nc(NCC3CCCCC3)c2cc1OC
Label value: TRUE

Compound: CCCn1c(C)nc2c1C(=O)c1ccccc1C2=O
Label value: FALSE
